target-entity: T1, G9a and GLP (Homo sapiens, UniProt Q96KQ7+Q9H9B1)
T1 sequence (Q96KQ7 2-1210 limits assumed): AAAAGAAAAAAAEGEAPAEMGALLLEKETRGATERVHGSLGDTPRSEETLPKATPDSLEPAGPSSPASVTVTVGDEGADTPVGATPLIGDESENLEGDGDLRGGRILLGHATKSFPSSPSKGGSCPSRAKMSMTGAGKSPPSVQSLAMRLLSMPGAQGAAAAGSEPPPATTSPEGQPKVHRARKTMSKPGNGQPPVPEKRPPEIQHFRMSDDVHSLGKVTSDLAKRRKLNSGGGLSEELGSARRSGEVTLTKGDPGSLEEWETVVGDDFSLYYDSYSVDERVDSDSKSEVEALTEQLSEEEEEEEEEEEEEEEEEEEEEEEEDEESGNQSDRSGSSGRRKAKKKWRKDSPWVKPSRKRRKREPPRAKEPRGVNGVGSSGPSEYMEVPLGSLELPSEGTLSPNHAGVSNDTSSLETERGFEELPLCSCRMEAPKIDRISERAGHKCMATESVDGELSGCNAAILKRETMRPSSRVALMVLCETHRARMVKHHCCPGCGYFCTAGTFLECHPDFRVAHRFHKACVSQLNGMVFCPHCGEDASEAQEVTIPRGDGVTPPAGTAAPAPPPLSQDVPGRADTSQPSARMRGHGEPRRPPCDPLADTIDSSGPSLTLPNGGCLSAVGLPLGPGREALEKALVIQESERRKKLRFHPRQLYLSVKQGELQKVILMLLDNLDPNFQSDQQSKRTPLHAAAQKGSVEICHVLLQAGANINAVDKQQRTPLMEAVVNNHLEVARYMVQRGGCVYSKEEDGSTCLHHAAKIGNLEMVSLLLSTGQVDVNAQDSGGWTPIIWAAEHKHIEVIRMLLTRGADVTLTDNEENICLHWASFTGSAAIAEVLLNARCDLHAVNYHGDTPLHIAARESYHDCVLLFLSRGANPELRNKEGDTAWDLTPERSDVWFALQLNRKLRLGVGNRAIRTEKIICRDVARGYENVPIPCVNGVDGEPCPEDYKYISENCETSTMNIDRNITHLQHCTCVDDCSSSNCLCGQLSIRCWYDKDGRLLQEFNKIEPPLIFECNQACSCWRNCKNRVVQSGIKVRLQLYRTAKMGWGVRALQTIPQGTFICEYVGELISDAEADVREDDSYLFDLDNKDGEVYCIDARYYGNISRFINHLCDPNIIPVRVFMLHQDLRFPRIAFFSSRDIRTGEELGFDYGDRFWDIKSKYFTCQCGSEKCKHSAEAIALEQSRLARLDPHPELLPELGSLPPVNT
T1 sequence (Q9H9B1 2-1298 limits assumed): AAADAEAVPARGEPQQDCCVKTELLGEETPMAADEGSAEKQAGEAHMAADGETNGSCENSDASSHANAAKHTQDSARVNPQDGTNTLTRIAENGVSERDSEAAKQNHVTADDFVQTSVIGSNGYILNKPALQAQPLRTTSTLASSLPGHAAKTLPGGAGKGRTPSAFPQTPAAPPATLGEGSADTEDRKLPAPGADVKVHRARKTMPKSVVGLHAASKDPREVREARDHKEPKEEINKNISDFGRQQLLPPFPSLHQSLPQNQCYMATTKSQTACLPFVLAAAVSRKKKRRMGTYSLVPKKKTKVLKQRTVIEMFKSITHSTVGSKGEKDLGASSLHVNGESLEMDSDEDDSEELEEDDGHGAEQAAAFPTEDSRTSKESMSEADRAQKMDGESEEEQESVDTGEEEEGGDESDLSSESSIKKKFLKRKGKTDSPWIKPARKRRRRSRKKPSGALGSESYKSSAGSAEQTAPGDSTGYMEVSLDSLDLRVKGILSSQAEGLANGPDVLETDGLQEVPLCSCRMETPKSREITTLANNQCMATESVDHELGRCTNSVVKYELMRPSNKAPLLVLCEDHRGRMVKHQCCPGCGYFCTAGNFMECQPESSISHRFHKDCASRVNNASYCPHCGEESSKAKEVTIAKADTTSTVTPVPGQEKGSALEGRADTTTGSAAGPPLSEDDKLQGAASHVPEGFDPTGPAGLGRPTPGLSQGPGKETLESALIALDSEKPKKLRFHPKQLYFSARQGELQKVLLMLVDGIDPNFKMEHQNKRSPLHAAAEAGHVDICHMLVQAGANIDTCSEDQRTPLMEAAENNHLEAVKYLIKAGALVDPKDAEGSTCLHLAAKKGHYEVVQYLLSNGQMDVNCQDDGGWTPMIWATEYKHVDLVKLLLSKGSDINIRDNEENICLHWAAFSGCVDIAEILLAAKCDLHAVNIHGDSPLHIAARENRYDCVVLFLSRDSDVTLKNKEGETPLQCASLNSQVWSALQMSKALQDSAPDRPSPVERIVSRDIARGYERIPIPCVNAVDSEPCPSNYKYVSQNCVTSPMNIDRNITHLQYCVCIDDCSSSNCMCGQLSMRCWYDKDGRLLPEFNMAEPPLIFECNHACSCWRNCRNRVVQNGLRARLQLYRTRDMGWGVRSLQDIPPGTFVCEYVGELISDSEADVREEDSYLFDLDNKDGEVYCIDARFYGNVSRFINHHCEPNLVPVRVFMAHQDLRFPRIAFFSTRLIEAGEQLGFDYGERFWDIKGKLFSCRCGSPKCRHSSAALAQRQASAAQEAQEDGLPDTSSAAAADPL
assay: Triple SILAC pull-down after UNC0638 treatment of 293T cells, DMSO/UNC0638 ratio of protein captured by 3×MBT;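 note: mass spectrometry (Q-Exactive) SILAC quantitation, DMSO/UNC0638 ratio computed after subtracting 3×MBTD355N mutant pull-down background, only proteins with at least twofold 3×MBT over mutant signal considered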
Assay type: cell-based
Set-up: endogenous in cells; host or cells: HEK 293T
settings: SILAC ratio DMSO relative to UNC0638, pull-down with 3xMBT; UNC0638 in light SILAC media; all values in log base 2

{"molecule": "SNRNP40 (protein, UniProt Q96DI7 1-357, looked up) U5 small nuclear …: MIEQQKRKGPELPLVPVKRQRHELLLGAGSGPGAGQQQATPGALLQAGPPRCSSLQAPIMLLSGHEGEVYCCKFHPNGSTLASAGFDRLILLWNVYGDCDNYATLKGHSGAVMELHYNTDGSMLFSASTDKTVAVWDSETGERVKRLKGHTSFVNSCYPARRGPQLVCTGSDDGTVKLWDIRKKAAIQTFQNTYQVLAVTFNDTSDQIISGGIDNDIKVWDLRQNKLTYTMRGHADSVTGLSLSSEGSYLLSNAMDNTVRVWDVRPFAPKERCVKIFQGNVHNFEKNLLRCSWSPDGSKIAAGSADRFVYVWDTTSRRILYKLPGHAGSINEVAFHPDEPIIISASSDKRLYMGEIQ", "readout-unit": "log base 2", "Relative to UNC0638 UNC Light": "−0.12"}
{"molecule": "CSRP2 (protein, UniProt Q16527 1-193, looked up) Cysteine and glycine-rich …: MPVWGGGNKCGACGRTVYHAEEVQCDGRSFHRCCFLCMVCRKNLDSTTVAIHDEEIYCKSCYGKKYGPKGYGYGQGAGTLNMDRGERLGIKPESVQPHRPTTNPNTSKFAQKYGGAEKCSRCGDSVYAAEKIIGAGKPWHKNCFRCAKCGKSLESTTLTEKEGEIYCKGCYAKNFGPKGFGYGQGAGALVHAQ", "readout-unit": "log base 2", "Relative to UNC0638 UNC Light": "−0.49"}
{"molecule": "UBXN1 (protein, UniProt Q04323 2-297, looked up) UBX domain-containing protein …: AELTALESLIEMGFPRGRAEKALALTGNQGIEAAMDWLMEHEDDPDVDEPLETPLGHILGREPTSSEQGGLEGSGSAAGEGKPALSEEERQEQTKRMLELVAQKQREREEREEREALERERQRRRQGQELSAARQRLQEDEMRRAAEERRREKAEELAARQRVREKIERDKAERAKKYGGSVGSQPPPVAPEPGPVPSSPSQEPPTKREYDQCRIQVRLPDGTSLTQTFRAREQLAAVRLYVELHRGEELGGGQDPVQLLSGFPRRAFSEADMERPLQELGLVPSAVLIVAKKCPS", "readout-unit": "log base 2", "Relative to UNC0638 UNC Light": 0.04}
{"molecule": "PRDX1 (protein, UniProt Q06830 2-199, looked up) Peroxiredoxin-1: SSGNAKIGHPAPNFKATAVMPDGQFKDISLSDYKGKYVVFFFYPLDFTFVCPTEIIAFSDRAEEFKKLNCQVIGASVDSHFCHLAWVNTPKKQGGLGPMNIPLVSDPKRTIAQDYGVLKADEGISFRGLFIIDDKGILRQITVNDLPVGRSVDETLRLVQAFQFTDKHGEVCPAGWKPGSDTIKPDVQKSKEYFSKQK", "readout-unit": "log base 2", "Relative to UNC0638 UNC Light": 0.04}
{"molecule": "DNAJC9 (protein, UniProt Q8WXX5 1-260, looked up) DnaJ homolog subfamily C …: MGLLDLCEEVFGTADLYRVLGVRREASDGEVRRGYHKVSLQVHPDRVGEGDKEDATRRFQILGKVYSVLSDREQRAVYDEQGTVDEDSPVLTQDRDWEAYWRLLFKKISLEDIQAFEKTYKGSEEELADIKQAYLDFKGDMDQIMESVLCVQYTEEPRIRNIIQQAIDAGEVPSYNAFVKESKQKMNARKRRAQEEAKEAEMSRKELGLDEGVDSLKAAIQSRQKDRQKEMDNFLAQMEAKYCKSSKGGGKKSALKKEKK", "readout-unit": "log base 2", "Relative to UNC0638 UNC Light": "−0.02"}
{"molecule": "HPRT1 (protein, UniProt P00492 2-218, looked up) Hypoxanthine-guanine …: ATRSPGVVISDDEPGYDLDLFCIPNHYAEDLERVFIPHGLIMDRTERLARDVMKEMGGHHIVALCVLKGGYKFFADLLDYIKALNRNSDRSIPMTVDFIRLKSYCNDQSTGDIKVIGGDDLSTLTGKNVLIVEDIIDTGKTMQTLLSLVRQYNPKMVKVASLLVKRTPRSVGYKPDFVGFEIPDKFVVGYALDYNEYFRDLNHVCVISETGKAKYKA", "readout-unit": "log base 2", "Relative to UNC0638 UNC Light": "−0.08"}
